Provide the reported growth of each item.
system: A498 renal; assay: NCI-60 one-dose screen, 48 h (100 = growth as untreated, 0 = no growth, -100 = all killed); conditions: 10 µM unless noted
This is part of a sample that, as a whole, favours compounds with a hit. Of some 83,000 tested, about 20% had one in any assay. Calls of active or inactive are those of the source. How the source made its calls: active means growth percent below 10; inactive means the rest.

Example entries begin here.
compound	experimental target	growth
O=C(Cc1ccc(/C=C/C(=O)c2ncc[nH]2)cc1)Nc1cc(F)c(F)c(F)c1	A498 renal	84.8% (inactive)
CN(C)CCn1c(=O)c2ccccc2n2nc3ccccc3c12	A498 renal	9.6% (active)
COC(=O)/C=C1/SC(=Nc2ccc(F)cc2)N(CCc2c[nH]c3ccc(O)cc23)C1=O	A498 renal	49.8% (inactive)
COc1ccc(C=Nc2c(C(=O)Nc3cccc(Cl)c3C)sc3nc(C)c(C(=O)/C=C/c4ccc(OC)cc4)cc23)cc1	A498 renal	-4.79% (active)
Cc1ccc2c(/C=C/C(=O)c3cc(CN4CCOCC4)c(O)c4nc(C)ccc34)cc(CN3CCOCC3)c(O)c2n1	A498 renal	-16.5% (active)

Your task in this section: give growth for each listed record.
1. COc1cc2ncnc(Nc3ccc(S(=O)(=O)Nc4nccs4)cc3)c2cc1OCCCN1CCCC1
2. CC1(C)CC[C@]2(CO)CC[C@]3(C)[C@](O)([C@H](O)C[C@@H]4[C@@]5(C)CCCNC(C)(C)[C@@H]5CC[C@]43C)[C@@H]2C1
3. O=C(c1c[nH]c2ccccc12)c1n[nH]c(=S)n1-c1ccc([N+](=O)[O-])cc1
4. O=C(OCc1ccc2c(Cl)cc(Cl)c(O)c2n1)N1CCN(C(=O)c2cc3ccccc3[nH]2)CC1
5. Cc1ncc(C(=O)Nc2ccc(CN3CCN(C)CC3)c(C(F)(F)F)c2)cc1C#Cc1cnc(N)c2ccc(C#N)cc12
6. COc1ccc2c(O)c(/C=C3\N=Nc4ncccc43)oc2c1C[C@@H]1CCNC[C@H]1F

["104% (inactive)", "83.6% (inactive)", "87.9% (inactive)", "14.2% (inactive)", "-41% (active)", "-32.1% (active)"]

Your task in this section: give growth for each listed record.
1. Cc1cccc(-c2nc(C(C)C)sc2-c2ccnc(NCCCNS(=O)(=O)c3ccc(Cl)cc3)c2)c1
2. C(=C(\C1=NCCN1)n1ccc2ccccc21)/c1ccccc1
3. COc1ccccc1/C=C/C(=O)Nc1ccc(F)cc1
4. CCCc1cc(=O)oc2c(C(=O)CC(C)C)c(O)c(CC=C(C)C)c(O)c12
5. Cc1nc(N/N=C/c2cn(-c3ccccc3)nc2-c2cc3ccccc3oc2=O)sc1N=Nc1ccccc1
6. COc1ccc(Oc2ccc(/C=C/C(=O)c3cc4ccccc4oc3=O)cc2)cc1

1. 79% (inactive)
2. 102% (inactive)
3. 102% (inactive)
4. -16.3% (active)
5. 77% (inactive)
6. 121% (inactive)

Your task in this section: give growth for each listed record.
1. COc1ccc(OC)c(Nc2nnc(-c3cc(OC)c(OC)c(OC)c3)o2)c1
2. C=C1C(=O)O[C@H]2[C@H]1CC/C(COC(=O)C(=O)c1c[nH]c3ccc(Cl)cc13)=C\CC[C@@]1(C)O[C@@H]21
3. CN(C)c1ccc(C(=S)c2ccc(N(C)C)cc2)cc1
4. COCCOC(C)C(/C=N/NC(N)=S)=N/NC(N)=S (stereo not drawn)

1. 89.9% (inactive)
2. -87.4% (active)
3. 62.6% (inactive)
4. 107% (inactive)
